// provenance: PubChem BioAssay AID504374

assayed.system: Runt-related transcription factor 1 (Homo sapiens) + Core-binding factor subunit beta (Homo sapiens) (UniProt Q01196+Q13951)
Sequence (Q01196 whole entry, looked up): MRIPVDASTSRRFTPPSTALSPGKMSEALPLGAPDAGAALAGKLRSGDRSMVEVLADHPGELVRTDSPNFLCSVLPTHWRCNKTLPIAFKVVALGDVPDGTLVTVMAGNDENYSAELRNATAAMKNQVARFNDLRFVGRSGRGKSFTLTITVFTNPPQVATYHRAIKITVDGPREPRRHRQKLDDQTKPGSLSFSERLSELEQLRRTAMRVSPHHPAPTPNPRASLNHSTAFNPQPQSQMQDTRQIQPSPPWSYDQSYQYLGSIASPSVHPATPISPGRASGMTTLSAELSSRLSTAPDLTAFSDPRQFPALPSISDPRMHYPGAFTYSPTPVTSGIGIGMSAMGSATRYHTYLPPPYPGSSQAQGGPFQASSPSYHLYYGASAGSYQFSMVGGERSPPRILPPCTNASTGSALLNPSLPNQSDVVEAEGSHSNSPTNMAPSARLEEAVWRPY
Sequence (Q13951 whole entry, looked up): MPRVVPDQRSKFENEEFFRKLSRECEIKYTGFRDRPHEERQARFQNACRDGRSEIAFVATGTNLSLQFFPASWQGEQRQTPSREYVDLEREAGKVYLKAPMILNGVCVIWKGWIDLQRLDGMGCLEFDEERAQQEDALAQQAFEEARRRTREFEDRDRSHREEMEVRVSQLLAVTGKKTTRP
test.protocol: qHTS Assay for Compounds Blocking the Interaction Between CBF-beta and RUNX1 for the Treatment of Acute Myeloid Leukemia: Hit Validation; further: nearly all actives have a fitted effect of over 60% in size; further: potency means the concentration at half of the fitted maximal effect
condition.notes: AlphaScreen CBFb-His/RUNX1-biotin binding; series mostly up to 59.8 µM
Among all 1,500 compounds or so, about 100 (6.7%) were called active. About 7% were inconclusive and are not listed. The full list was thinned out, with actives kept by preference.

compound | Potency
CCOC(=O)/C(C#N)=C/c1ccc(OC(=O)c2ccccn2)cc1 | 3.86 µM (active)
O=S(=O)(Nc1nc(SCc2ccc(Cl)cc2)n[nH]1)c1ccccc1 | inactive
O=C(O)c1ccc(/C=N\Nc2ccc(S(=O)(=O)N3CCOCC3)cc2[N+](=O)[O-])cc1 | inactive
CC(=O)C1C(=O)CC(c2ccc(Cl)cc2)CC1=O (configuration not stated) | inactive
COc1ccc(/C=N/NC(=O)c2ccco2)cc1OCc1ccccc1 | inactive
Cn1cnc(S(=O)(=O)Nc2ccc(OC(F)F)cc2)c1 | inactive
Cc1nn(C)cc1/C=N/NC(=O)c1ccco1 | inactive
CCN(CC)c1ccc(/C=N/NC(=O)c2ccco2)c(O)c1 | 31.6 µM (active)
O=C(Nc1ccccc1)NC1CCCCNC1=O (configuration not stated) | inactive
Cc1nc(C)c(-c2ccnc(/N=C/NO)n2)s1 | inactive
CCn1c(NC(=O)c2ccccc2F)c(-c2cccs2)c(=O)c2ccccc21 | inactive
Cc1onc(-c2c(F)cccc2Cl)c1C(=O)N1CCSCC1 | inactive

---

assayed.system: Runt-related transcription factor 1 (Homo sapiens) + Core-binding factor subunit beta (Homo sapiens) (UniProt Q01196+Q13951)
test.protocol: qHTS Assay for Compounds Blocking the Interaction Between CBF-beta and RUNX1 for the Treatment of Acute Myeloid Leukemia: Hit Validation; further: nearly all actives have a fitted effect of over 60% in size; further: potency means the concentration at half of the fitted maximal effect
condition.notes: AlphaScreen CBFb-His/RUNX1-biotin binding; series mostly up to 59.8 µM
Screen size: about 1,500 compounds; about 100 (6.7%) were called active. Inconclusive results (about 7%) are left out. This excerpt belongs to a sample that is enriched for actives.

molecule | Potency
Cc1cc(C)n2nc(N)c(N=Nc3ccccc3)c2n1 | inactive
Nc1nc(-c2ccccc2)c(N=Nc2ccccc2Cl)s1 | 4.34 µM (active)
O=S(=O)(Nc1cccc(CCc2ccccn2)c1)c1cc(Cl)ccc1Cl | inactive
NCC(=O)Nc1ccc(Cl)cc1C(=O)c1ccc[nH]1 | 3.55 µM (active)
Oc1ccc(/C=N/NC(=S)Nc2cccnc2)c(O)c1O | 1.26 µM (active)
COc1ccc(CCn2cnc3c([nH]c4ccccc43)c2=O)cc1 | inactive
CCOC(=O)NC1=NCC(C)S1 (stereo not given) | inactive
CN(C)C(=O)CSc1nnc(NC(=O)CCc2ccccc2)s1 | inactive
CC(C)(C)C(=O)Nc1ccc(NC(=O)C(C)(C)C)cc1 | inactive
S=C(N/N=C/c1cccc2ccccc12)Nc1cccc(Cl)c1 | inactive
C/C(Cc1nnn(-c2cc(C)on2)n1)=N\O | inactive
CCn1c(NC(=O)C(C)C)c(-c2cccs2)c(=O)c2ccccc21 | inactive
O=C(O)/C=C/C(=O)Nc1ccc(Cl)cc1C(=O)c1ccccc1 | inactive
C=CCOc1c(CCC)cc(CCC)cc1C(N)=O | inactive
CN(C)NC(=S)NC1CCS(=O)(=O)C1 (stereo not given) | inactive
Nc1nc(-c2ccccc2)c(N=Nc2ccc(Cl)cc2)s1 | 13.7 µM (active)
CCOc1ccc(Nc2nc(N)nc(CSC(=S)N3CCOCC3)n2)cc1 | inactive
CNC(=O)C(=O)N/N=C/c1cccnc1 | inactive
COc1cccc(NC(=O)C(=O)NCCc2ccc(F)cc2)c1 | inactive
COc1ccc(C(=O)/C=C/Nc2cc(C)ccn2)cc1 | inactive
Nc1cc(=O)[nH]c(SCC(=O)Nc2cc(Cl)ccc2Cl)n1 | inactive
O=C(O)C1=CC(=C(c2ccc(O)c(C(=O)O)c2)c2ccc(O)c(C(=O)O)c2)C=CC1=O | 1.78 µM (active)
COc1ccccc1C1CCN(C(=O)c2ccco2)CC1 | inactive
Cc1ccc(CN(C(=O)c2cc(=O)c3cc(C)cc(C)c3o2)C2CCS(=O)(=O)C2)cc1 (stereo not given) | inactive
C/C(O)=C(\C#N)P(=O)(c1ccccc1)c1ccccc1 | inactive
